# TARGET DESC: T1, human SIRPγ-Fc (human)
# T1 construct: a signal peptide may be part of the entry
# RUN DESCRIPTION: BLI Octet, antigen-Fc on biosensor;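 note: antigen captured on the biosensor tip and then immersed in solutions of the test antibodies, which act as the analyte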
QUANTITY KIND: pKd
In plain terms, pKd is the concentration in mol/L turned into minus its base-10 logarithm.

Answered examples (2):
// query Given the entry SIRPAB-7 (antibody, human IgG1, kappa, V domains shown) VH: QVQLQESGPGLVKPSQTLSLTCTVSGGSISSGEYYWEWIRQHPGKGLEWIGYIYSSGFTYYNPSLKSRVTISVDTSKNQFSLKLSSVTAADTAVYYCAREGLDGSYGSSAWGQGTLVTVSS VL: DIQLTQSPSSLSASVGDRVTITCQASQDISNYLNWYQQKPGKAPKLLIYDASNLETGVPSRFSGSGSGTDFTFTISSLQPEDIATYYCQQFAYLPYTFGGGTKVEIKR , report its measured pKd.
// result 10.00

// query Recorded pKd of SIRPAB-1 (antibody, human IgG1, kappa, V domains shown) VH: QVQLQESGPGLVKPSQTLSLTCTVSGGSISSGGYYWSWIRQHPGKGLEWIGSIYYSGSTYYNPSLKSRVTISVDTSKNQFSLKLSSVTAADTAVYYCAREGYHSGMDVWGQGTTVTVSS VL: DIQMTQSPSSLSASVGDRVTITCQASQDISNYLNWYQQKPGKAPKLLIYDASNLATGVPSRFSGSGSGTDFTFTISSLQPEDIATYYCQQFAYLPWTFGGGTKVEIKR , please.
// result 8.84

Let us examine a further case.
// query Using the record for SIRPAB-13 (antibody, human IgG1, kappa, V domains shown) VH: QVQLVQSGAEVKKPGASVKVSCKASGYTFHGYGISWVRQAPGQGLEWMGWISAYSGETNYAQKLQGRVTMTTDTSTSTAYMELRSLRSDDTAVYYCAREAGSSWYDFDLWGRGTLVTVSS VL: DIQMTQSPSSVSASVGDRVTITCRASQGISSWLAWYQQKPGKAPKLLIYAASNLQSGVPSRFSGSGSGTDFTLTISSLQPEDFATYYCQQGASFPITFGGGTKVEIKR , report its pKd.
// result 8.39
